So I've got a bunch of compounds here, and I need their MIC values.
- Test system: Aspergillus flavus
- Measurement Protocol: Antifungal activity against Aspergillus flavus NCIM 539 after 48 hrs by agar cup plate method
- Assay type: functional
- Cond: NCIM 539, 48 h
Numbers only, in µg/mL.

Cc1ccc2cc(/C=C3\SC(=S)N(CCC(=O)O)C3=O)c3nnnn3c2c1 | 50
COc1ccc2c(c1)cc(/C=C1\SC(=S)N(CCC(=O)O)C1=O)c1nnnn12 | 150
COc1ccc2cc(/C=C3\SC(=S)NC3=O)c3nnnn3c2c1 | 100
Cc1ccc2c(c1)cc(/C=C1\SC(=S)N(CC(=O)O)C1=O)c1nnnn12 | 50

Okay, now this compound:
The compound listed as O=C(O)CN1C(=O)/C(=C/c2cc3ccccc3n3nnnc23)SC1=S has a reported MIC of 125
